# TESTED_SYSTEM: Vg9/Vd2 TCR on SKW3_4 cells (UniProt Q99603)
# Sequence (Q99603 21-122, chain 1 of 2): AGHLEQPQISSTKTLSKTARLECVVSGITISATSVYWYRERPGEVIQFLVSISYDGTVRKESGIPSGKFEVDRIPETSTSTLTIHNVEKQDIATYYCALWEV
# Sequence (A0JD36 20-115, chain 2 of 2, further chain): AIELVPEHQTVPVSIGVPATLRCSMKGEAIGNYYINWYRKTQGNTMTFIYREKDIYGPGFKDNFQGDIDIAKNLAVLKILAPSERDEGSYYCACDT
# TEST_DETAILS: flow cytometry DRC binding 37 C, SKW3_4 cells expressing Vg9/Vd2
// reported Max. Activity (fold over background) for each item listed
Hey, just send me the number, nothing else.

Worked examples follow.
[
  {
    "BINDER": "VG9B41 (antibody, human IgG1, kappa, V domains shown) VH: QVQLQESGPQLVRPGASVKISCKASGYSFTTYWMHWVKQRPGQGLEWIGLIDPSDSETRLNQKFKDKATLTVDKSSSTAYMRLSSPTSEDSAVYYCASNRWLLGWGQGTMVTVSS VL: EIVLTQTPLSSPVTLGQPASISCRSSQSLVHSDGNTYLSWLHQRPGQPPRLLIYKISNRFSGVPDRFSGSGAGTDFTLKISRVETEDVGVYYCVQTREFPLTFGGGTKVEIKR",
    "Max. Activity (fold over background)": 11.4
  },
  {
    "BINDER": "VG9B77 (antibody, human IgG1, kappa, V domains shown) VH: EVQLVESGAEVMKPGSSVKVSCKASGGTFSSYAISWVRQAPEQGLEWMGGIIPFFGTADYAQKFQGRVTITADKSTNTAYMELTSLRSEDTAVYYCATATVTTDYYYGMDVWGQGTMVTVSS VL: EIVMTQSPLFSPVTLGQPASISCRSSQSLVHSDGNTYLSWLQQRPGQPPRLLIYEISNRFTGVPDRFSGSGAGTDFTLKISRVEAEDVGVYYCMQARQFPLTFGGGTKVEIKR",
    "Max. Activity (fold over background)": 102
  }
]

--- query ---
Task item: Find the recorded Max. Activity (fold over background) belonging to VG9B96 (antibody, human IgG1, kappa, V domains shown) VH: EVQLVQSGAEVKKPGSSVKVSCKASGGTFSNYAISWVRLAPGQGLEWMGGIIPIFSAGTYAQRFQGRVTITADKSTSTAYMELNSLRSEDTAVYYCSSNSGTYYDYYYGMDVWGQGTMVTVSS VL: DIVMTQSPLSSHVTLGQPASISCRSSQSLVHSDGNTYLSWLQQRPGQPPRLLIYKIFNRLSGVPDRFSGSGAGTDFTLKISRVEAEDVGVYYCMQAKQFPLTFGGGTKVEIKR and report it.
Reply: 126
